Values were extracted from patent US20210121563A1.

Give measured Ranking, FACS data for each item. Keep answers brief.
- Test System: Programmed Death 1 (PD-1) (UniProt Q15116 25-288, limits assumed)
- Sequence (Q15116 25-288 limits assumed): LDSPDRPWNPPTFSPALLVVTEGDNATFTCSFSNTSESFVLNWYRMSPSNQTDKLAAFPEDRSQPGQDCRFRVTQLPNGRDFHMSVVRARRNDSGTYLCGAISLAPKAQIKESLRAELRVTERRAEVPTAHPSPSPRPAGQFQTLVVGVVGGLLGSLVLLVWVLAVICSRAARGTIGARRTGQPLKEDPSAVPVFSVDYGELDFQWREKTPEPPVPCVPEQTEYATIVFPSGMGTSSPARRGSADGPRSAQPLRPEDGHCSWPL
- Assay: rank of the clone among the 16 humanized clones by FACS binding data; higher number = worse
Numbers only.

BAP049-hum16 (antibody, human IgG4 S228P, kappa, V domains shown, also called Clone No. 16) VH: EVQLVQSGAEVKKPGESLRISCKGSGYTFTTYWMHWVRQAPGQGLEWMGNIYPGTGGSNFDEKFKNRFTISRDNSKNTLYLQMNSLRAEDTAVYYCTRWTTGTGAYWGQGTTVTVSS VL: EIVLTQSPDFQSVTPKEKVTITCKSSQSLLDSGNQKNFLTWYQQKPGQAPRLLIYWASTRESGVPSRFSGSGSGTDFTFTISSLEAEDAATYYCQNDYSYPYTFGQGTKVEIKR | 15

// batch mode: one Ranking, FACS data value per listed entry
1. BAP049-hum01 (antibody, human IgG4 S228P, kappa, V domains shown, also called humanized BAP049 clone hum01) VH: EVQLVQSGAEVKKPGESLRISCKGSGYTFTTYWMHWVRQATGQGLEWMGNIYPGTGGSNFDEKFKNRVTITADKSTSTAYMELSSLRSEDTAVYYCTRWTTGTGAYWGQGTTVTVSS VL: EIVLTQSPATLSLSPGERATLSCKSSQSLLDSGNQKNFLTWYQQKPGQAPRLLIYWASTRESGVPSRFSGSGSGTEFTLTISSLQPDDFATYYCQNDYSYPYTFGQGTKVEIKR
2. BAP049-hum03 (antibody, human IgG4 S228P, kappa, V domains shown, also called Clone No. 3) VH: EVQLVQSGAEVKKPGESLRISCKGSGYTFTTYWMHWIRQSPSRGLEWLGNIYPGTGGSNFDEKFKNRFTISRDNSKNTLYLQMNSLRAEDTAVYYCTRWTTGTGAYWGQGTTVTVSS VL: DIQMTQSPSSLSASVGDRVTITCKSSQSLLDSGNQKNFLTWYQQKPGQAPRLLIYWASTRESGIPPRFSGSGYGTDFTLTINNIESEDAAYYFCQNDYSYPYTFGQGTKVEIKR

1. 2
2. 7
